pKd values for the binders below.
- TARGET_OR_SYSTEM: T1, FLAG tag
- T1 chain: DYKDDDDK
- PROCEDURE_DETAILS: SPR bivalent
In textbook form, pKd equals minus log to base ten of the concentration in mol/L.

// solved cases for pKd follow
1. Parental (mouse VH/VL, human constant regions) (antibody, V domains shown) VH: QVQLQQSAGELARPGASVKMSCKASGYSFTTYTIHWVKQRPGQGLEWIGYINPSSGYAAYNQNFKDETTLTADKSSSTAYMQLSSLTSEDSAVYYCAREKFYGYDYWGQGTTLTVSS VL: DVLMTQLPLSLPVSLGDQASISCRSSQSIVHRNGNTYLEWYLLKPGQSPKLLIYKVSNRFSGVPDRFSGSGSGTDFTLKISRVEAEDLGVYYCFQGSHVPYTFGGGTKLEIK : 9.02
2. V4 IgG (antibody, V domains shown) VH: QVQLVQSGAEVKKPGASVKVSCKASGYSFTTYTIHWVRQAPGQGLEWIGYINPSSGYAAYNQKFQGRVTLTADKSTSTAYMELSSLRSEDTAVYYCAREKFYGYDYWGQGTTVTVSS VL: DVVMTQSPDSLAVSLGERATINCKSSQSIVHRNGNTYLEWYQQKPGQPPKLLIYKVSNRFSGVPDRFSGSGSGTDFTLTISSLQAEDVAVYYCFQGSHVPYTFGGGTKLEIK : 9.04
3. V3 IgG (antibody, V domains shown) VH: QVQLVQSGAEVKKPGASVKVSCKASGYSFTTYTIHWVRQAPGQGLEWIGYINPSSGYAAYNQKFQGRVTLTADKSTSTAYMELSSLRSEDTAVYYCAREKFYGYDYWGQGTTVTVSS VL: DVVMTQSPDSLAVSLGERATINCKSSQSIVHRNGNTYLEWYQLKPGQPPKLLIYKVSNRFSGVPDRFSGSGSGTDFTLTISSLQAEDVAVYYCFQGSHVPYTFGGGTKLEIK : 9.00

Please look at the following binder next.
Recorded pKd of V7 IgG (antibody, V domains shown) VH: QVQLVQSGAEVKKPGASVKVSCKASGYSFTTYTMHWVRQAPGQGLEWMGYINPSSGYAAYNQKFQGRVTMTADKSTSTAYMELSSLRSEDTAVYYCAREKFYGYDYWGQGTTVTVSS VL: DVVMTQSPDSLAVSLGERATINCKSSQSIVHRNGNTYLEWYQLKPGQPPKLLIYKVSNRFSGVPDRFSGSGSGTDFTLTISSLQAEDVAVYYCFQGSHVPYTFGGGTKLEIK , please.
8.89
